Biological target: T1, KDM5B-PHD1-L324A (Homo sapiens)
T1 chain: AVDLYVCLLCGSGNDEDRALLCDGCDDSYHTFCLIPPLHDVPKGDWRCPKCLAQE
Assay: ITC
measurement label: pKd
Formally, pKd is defined as -log10 of the concentration c, with c in mol/L.

Would you kindly share the measured pKd for ARTKQTARKS (histone H3 N-terminal tail, residues 1-10; also called H3K4me0; H3K4me0 peptide; source: synthetic peptide, bought: GL Biochem Ltd. (Shanghai, China)) [unmodified H3K4 peptide (residues 1-10)] ?
4.82
